- Method Notes: drug combination growth inhibition, ovarian cancer – cell-based, oncology-focused library, rucaparib conditional, profiling panel (AID 1508598)
- Experimental Setup: patient-derived ovarian cancer cells, CellTiter-Glo viability, 144 h; at 0.0781 µM; OCI-P5x cells; without rucaparib; active compounds read low
Below, each entry is listed alongside its reported viability.

[
  {
    "Molecule": "Cc1nc(N)sc1-c1ccnc(Nc2ccc(N3CCOCC3)cc2)n1",
    "viability, %": 115
  },
  {
    "Molecule": "Nc1ccc(C(=O)Nc2cccc(-c3nc(N4CCOCC4)c4oc5ncccc5c4n3)c2)cn1",
    "viability, %": 117
  },
  {
    "Molecule": "CN(C)CC[C@H](CSc1ccccc1)Nc1ccc(S(=O)(=O)NC(=O)c2ccc(N3CCN(Cc4ccccc4-c4ccc(Cl)cc4)CC3)cc2)cc1[N+](=O)[O-]",
    "viability, %": 99.6
  },
  {
    "Molecule": "NC(=O)C1CCCc2c1[nH]c1ccc(Cl)cc21 (centres undefined)",
    "viability, %": 117
  }
]

====

Here, each record is paired with measured viability data.
- Method Notes: drug combination growth inhibition, ovarian cancer – cell-based, oncology-focused library, rucaparib conditional, profiling panel (AID 1508598)
- Experimental Setup: patient-derived ovarian cancer cells, CellTiter-Glo viability, 144 h; at 0.00122 µM; OCI-P5x cells; without rucaparib; active compounds read low
Activity calls are given as the source filed them.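 The calls were made as follows: active = normalized viability below 100% at a tested concentration; inactive = the rest.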
Experimental Endpoint: viability

[
  {
    "Compound": "COc1ccc2cc(-c3nc(-c4ccc(S(C)=O)cc4)[nH]c3-c3ccncc3)ccc2c1 (centres undefined)",
    "Data Value": "105% (inactive)"
  },
  {
    "Compound": "NC(=O)c1ccc(I)c([N+](=O)[O-])c1",
    "Data Value": "97.6% (active)"
  },
  {
    "Compound": "O=C(O)[C@H](Cc1c[nH]c2ccccc12)N1C(=O)c2ccccc2C1=O",
    "Data Value": "93.9% (active)"
  },
  {
    "Compound": "C=CC(=O)N1CCC[C@@H](n2nc(-c3ccc(Oc4ccccc4)cc3)c3c(N)ncnc32)C1",
    "Data Value": "48.3% (active)"
  },
  {
    "Compound": "CCOc1ccn(-c2ccc(F)cc2)c(=O)c1C(=O)Nc1ccc(Oc2ccnc(N)c2Cl)c(F)c1",
    "Data Value": "120% (inactive)"
  },
  {
    "Compound": "CC[C@@H]1C(=O)N(C)c2cnc(Nc3ccc(C(=O)NC4CCN(C)CC4)cc3OC)nc2N1C1CCCC1",
    "Data Value": "50.9% (active)"
  },
  {
    "Compound": "Cc1ccc(-c2csc(NC(=O)c3ccccc3)n2)c(C)c1",
    "Data Value": "101% (inactive)"
  },
  {
    "Compound": "COc1cc2c(Oc3ccc4[nH]c(C)cc4c3F)ncnc2cc1OCCCN1CCCC1",
    "Data Value": "94% (active)"
  },
  {
    "Compound": "C=CC(=O)Nc1cccc(Nc2nc(Nc3ccc(NC4CN(CCF)C4)cc3OC)ncc2C(F)(F)F)c1",
    "Data Value": "89.9% (active)"
  },
  {
    "Compound": "CCN(CC)CCCCNc1ncc2cc(-c3cc(OC)cc(OC)c3)c(NC(=O)NC(C)(C)C)nc2n1",
    "Data Value": "98.6% (active)"
  },
  {
    "Compound": "C#Cc1cccc(Nc2ncnc3cc(OC)c(OCCCCCCC(=O)NO)cc23)c1",
    "Data Value": "98.8% (active)"
  },
  {
    "Compound": "COc1ncc(-c2ccc3nccc(-c4ccnnc4)c3c2)cc1NS(=O)(=O)c1ccc(F)cc1F",
    "Data Value": "69.1% (active)"
  },
  {
    "Compound": "C[C@@H]1CN(CC(=O)Nc2ccc3c(c2)Cc2cccc(-c4cc(=O)cc(N5CCOCC5)o4)c2S3)C[C@H](C)O1",
    "Data Value": "121% (inactive)"
  },
  {
    "Compound": "CN(C)CC[C@H](CSc1ccccc1)Nc1ccc(S(=O)(=O)NC(=O)c2ccc(N3CCN(Cc4ccccc4-c4ccc(Cl)cc4)CC3)cc2)cc1[N+](=O)[O-]",
    "Data Value": "102% (inactive)"
  },
  {
    "Compound": "COc1ccc(COc2cc3oc(=O)c4cc(C(C)O)ccc4c3cc2OC)cc1 (centres undefined)",
    "Data Value": "98% (active)"
  },
  {
    "Compound": "CN(C)Cc1ccc(-c2nc3cccc4c3n2CCNC4=O)cc1",
    "Data Value": "119% (inactive)"
  },
  {
    "Compound": "Cn1cc(-c2ccc3c(c2)CCN3C(=O)Cc2cccc(C(F)(F)F)c2)c2c(N)ncnc21",
    "Data Value": "99.7% (active)"
  },
  {
    "Compound": "c1ccc2c(CCNc3ccc(Nc4ccncc4)cc3)c[nH]c2c1",
    "Data Value": "121% (inactive)"
  },
  {
    "Compound": "CC(C)Oc1ccc(C(=O)N[C@H](CNC(=O)CN(C)C)Cc2ccc(-c3cn4cccc([C@H](C)O)c4n3)cc2)cc1Cl",
    "Data Value": "107% (inactive)"
  },
  {
    "Compound": "CC(C)n1nc(-c2ccc3oc(N)nc3c2)c2c(N)ncnc21",
    "Data Value": "90.7% (active)"
  },
  {
    "Compound": "O=C(NCCCNc1nc(Nc2cccc(NC(=O)N3CCCC3)c2)ncc1I)c1cccs1",
    "Data Value": "94.8% (active)"
  },
  {
    "Compound": "CN(C)C/C=C/C(=O)Nc1cc2c(Nc3ccc(F)c(Cl)c3)ncnc2cc1O[C@H]1CCOC1",
    "Data Value": "99.7% (active)"
  },
  {
    "Compound": "COc1cc(OC)c(/C=C/S(=O)(=O)Cc2ccc(OC)c(NCC(=O)O)c2)c(OC)c1",
    "Data Value": "104% (inactive)"
  },
  {
    "Compound": "CC(/C=C/C(=O)NO)=C\\[C@@H](C)C(=O)c1ccc(N(C)C)cc1",
    "Data Value": "83.5% (active)"
  },
  {
    "Compound": "CCC(CC)CC1(C(=O)Nc2ccccc2SC(=O)C(C)C)CCCCC1",
    "Data Value": "96% (active)"
  },
  {
    "Compound": "C#CC[C@H](c1nc2cc(Cl)ccc2c(=O)n1Nc1ccccc1)N(CCCN)C(=O)c1cccc(Cl)c1F",
    "Data Value": "97.9% (active)"
  },
  {
    "Compound": "C=CC(=O)Nc1cc(Nc2nccc(-c3cn(C)c4ccccc34)n2)c(OC)cc1N(C)CCN(C)C",
    "Data Value": "103% (inactive)"
  },
  {
    "Compound": "O=S(=O)(O)CCSSCCS(=O)(=O)O",
    "Data Value": "103% (inactive)"
  },
  {
    "Compound": "N#CCNC(=O)c1ccc(-c2ccnc(Nc3ccc(N4CCOCC4)cc3)n2)cc1",
    "Data Value": "103% (inactive)"
  },
  {
    "Compound": "CS(=O)(=O)N1CCc2c(-c3cnc(N)nc3)nc(N3CCOCC3)nc21",
    "Data Value": "111% (inactive)"
  },
  {
    "Compound": "C[C@@H](Oc1cc(-c2cnn(C3CCNCC3)c2)cnc1N)c1c(Cl)ccc(F)c1Cl",
    "Data Value": "107% (inactive)"
  },
  {
    "Compound": "Cc1cnc(-c2cnc(NCCNc3ccc(C#N)cn3)nc2-c2ccc(Cl)cc2Cl)[nH]1",
    "Data Value": "106% (inactive)"
  },
  {
    "Compound": "Nc1cccc2c1C(=O)N(C1CCC(=O)NC1=O)C2=O (centres undefined)",
    "Data Value": "125% (inactive)"
  },
  {
    "Compound": "OCCn1cc(-c2cnc3nnn(Cc4ccc5ncccc5c4)c3n2)cn1",
    "Data Value": "105% (inactive)"
  },
  {
    "Compound": "O=C(O)c1ccc(O)c2ncccc12",
    "Data Value": "97.9% (active)"
  },
  {
    "Compound": "COc1ccc(C2=NC(c3ccc(Cl)cc3)C(c3ccc(Cl)cc3)N2C(=O)N2CCNC(=O)C2)c(OC(C)C)c1 (centres undefined)",
    "Data Value": "93.6% (active)"
  },
  {
    "Compound": "Cc1cc2c(F)c(Oc3ncnn4cc(OC[C@@H](C)O)c(C)c34)ccc2[nH]1",
    "Data Value": "109% (inactive)"
  },
  {
    "Compound": "Cn1cc(CNCC2CCN(c3ncc(C(=O)NO)cn3)CC2)c2ccccc21",
    "Data Value": "95.8% (active)"
  },
  {
    "Compound": "Fc1cc(-c2cccc3ncc(-c4cnn(C5CCNCC5)c4)nc23)cc(F)c1CN1CCOCC1",
    "Data Value": "18.7% (active)"
  }
]

Value source: PubChem BioAssay
